From: patent US11339171B2

assay_info: Pharmacokinetics in ICR mice after intravenous and intragastric administration
Type: in vivo
measurement_setup: male, ICR, mouse, plasma, iv, 2 mg/kg, ICR mice, IV 2 mg/kg, mean of 3 animals; read-out: MRT(0-t)
Some molecules, each annotated with its measured MRT last.
The answer is to be given in h; state only the numeric part.

Any idea what its MRT last is? The molecule is COc1nc(C2CC2)ncc1-c1nc2c(n1C(C)C)[C@@]1(C(=O)Nc3cc(Cl)ccc31)N(c1cc(Cl)ccc1C)C2=O [Example S-121] 5.15

What do you have for COc1cc(OC)c(-c2nc3c(n2C(C)C)[C@@]2(C(=O)Nc4cc(Cl)ccc42)N(c2cc(Cl)cnc2C)C3=O)cn1 [Example S-131] ? 0.85

What do you have for CCOc1cc(OC)c(-c2nc3c(n2C(C)C)[C@@]2(C(=O)Nc4cc(Cl)ccc42)N(c2cc(Cl)ccc2C)C3=O)cn1 [Example S-72] ? 1.67

What do you have for COc1cc(C(C)C)ccc1-c1nc2c(n1C(C)C)[C@@]1(C(=O)Nc3cc(Cl)ccc31)N(c1cc(Cl)ccc1C)C2=O [Example S-32] ? 1.41

What do you have for COc1cc(OC)c(-c2nc3c(n2C(C)C)[C@@]2(C(=O)Nc4cc(Cl)ccc42)N(c2cccc(Cl)c2)C3=O)cn1 [Example S-115] ? 0.84

What do you have for COc1ccc(-c2nc3c(n2C(C)C)[C@@]2(C(=O)Nc4cc(Cl)ccc42)N(c2cc(Cl)cnc2C)C3=O)c(OC)c1 [Example S-61] ? 1.15

----------
assay_info: Pharmacokinetics in ICR mice after intravenous and intragastric administration
Type: in vivo
measurement_setup: male, ICR, mouse, plasma, po, 5 mg/kg, ICR mice, PO 5 mg/kg, mean of 3 animals; read-out: Cmax
measured_attribute: Cmax
# do not omit the unit; it follows the number

[[record]]
structure_notation = "COc1ncc(-c2nc3c(n2C(C)C)[C@@]2(C(=O)Nc4cc(Cl)ccc42)N(c2cc(F)cc(Cl)c2)C3=O)c(OC)n1"
result = "1370 ng/mL"

[[record]]
structure_notation = "COc1cc(OC)c(-c2nc3c(n2C(C)C)[C@@]2(C(=O)Nc4cc(Cl)ccc42)N(c2cc(Cl)cnc2C)C3=O)cn1"
result = "1700 ng/mL"


Okay, now this compound:
Any idea what its Cmax is? The compound is COc1cc(C2CC2)ncc1-c1nc2c(n1C(C)C)[C@@]1(C(=O)Nc3cc(Cl)ccc31)N(c1cc(Cl)ccc1C)C2=O 2580 ng/mL

----------
assay_info: Pharmacokinetics in ICR mice after intravenous and intragastric administration
Format: in vivo
measurement_setup: male, ICR, mouse, plasma, iv, 2 mg/kg, ICR mice, IV 2 mg/kg, mean of 3 animals
Some compounds, each annotated with its measured AUC(0-inf).
The answer is to be given in ng·h/mL; state only the numeric part.

Any idea what its AUC(0-inf) is? The compound is COc1ncc(-c2nc3c(n2C(C)C)[C@@]2(C(=O)Nc4cc(Cl)ccc42)N(c2cc(Cl)ccc2F)C3=O)c(OC)n1 [Example S-44] 3060

----------
Some compounds, each annotated with its measured Cmax.
assay_info: Pharmacokinetics in ICR mice after intravenous and intragastric administration
Format: in vivo
measurement_setup: male, ICR, mouse, plasma, iv, 2 mg/kg, ICR mice, IV 2 mg/kg, individual animal; read-out: Cmax
The answer is to be given in ng/mL; state only the numeric part.

Worked set:
[[record]]
compound = "COc1cc(OC)c(-c2nc3c(n2C(C)C)[C@@]2(C(=O)Nc4cc(Cl)ccc42)N(c2cccc(Cl)c2)C3=O)cn1 [Example S-115]"
quantitative_result = 3000

[[record]]
compound = "COc1nc(C2CC2)ncc1-c1nc2c(n1C(C)C)[C@@]1(C(=O)Nc3cc(Cl)ccc31)N(c1cc(Cl)ccc1C)C2=O [Example S-121]"
quantitative_result = 3350


Okay, now this compound:
Any idea what its Cmax is? The compound is CCOc1cc(OC)c(-c2nc3c(n2C(C)C)[C@@]2(C(=O)Nc4cc(Cl)ccc42)N(c2cc(Cl)cnc2C)C3=O)cn1 [Example S-96] 2980

----------
assay_info: Pharmacokinetics in ICR mice after intravenous and intragastric administration
Format: in vivo
measurement_setup: male, ICR, mouse, plasma, po, 5 mg/kg, ICR mice, PO 5 mg/kg, mean of 3 animals; read-out: Cmax
// classify: if (Cmax < 3000 ng/mL) true else false

[[record]]
structure_notation = "COc1cc(OC)c(-c2nc3c(n2C(C)C)[C@@]2(C(=O)Nc4cc(Cl)ccc42)N(c2cccc(Cl)c2)C3=O)cn1"
label_class = "true"

[[record]]
structure_notation = "COc1cc(OC(C)C)ncc1-c1nc2c(n1C(C)C)[C@@]1(C(=O)Nc3cc(Cl)ccc31)N(c1cc(Cl)ccc1C)C2=O"
label_class = "false"

[[record]]
structure_notation = "CCOc1cc(OC)c(-c2nc3c(n2C(C)C)[C@@]2(C(=O)Nc4cc(Cl)ccc42)N(c2cc(Cl)ccc2F)C3=O)cn1"
label_class = "false"

[[record]]
structure_notation = "COc1nc(N(C)C)ncc1-c1nc2c(n1C(C)C)[C@@]1(C(=O)Nc3cc(Cl)ccc31)N(c1cc(Cl)cnc1C)C2=O"
label_class = "true"

[[record]]
structure_notation = "COc1ncc(-c2nc3c(n2C(C)C)[C@@]2(C(=O)Nc4cc(Cl)ccc42)N(c2cc(Cl)ccc2F)C3=O)c(OC)n1"
label_class = "true"


Consider the record given below.
hey, is Cmax for COc1cc(C(C)C)ccc1-c1nc2c(n1C(C)C)[C@@]1(C(=O)Nc3cc(Cl)ccc31)N(c1cc(Cl)ccc1C)C2=O lower than 3000 ng/mL or not? true

----------
assay_info: Pharmacokinetics in ICR mice after intravenous and intragastric administration
Type: in vivo
measurement_setup: male, ICR, mouse, plasma, po, 5 mg/kg, ICR mice, PO 5 mg/kg, individual animal; read-out: MRT(0-∞)
measured_attribute: MRT inf (h)
The answer is to be given in h; state only the numeric part.

[[record]]
structure_notation = "COc1cc(C2CC2)ncc1-c1nc2c(n1C(C)C)[C@@]1(C(=O)Nc3cc(Cl)ccc31)N(c1cc(Cl)ccc1C)C2=O"
quantitative_result = 3.54

[[record]]
structure_notation = "COc1ncc(-c2nc3c(n2C(C)C)[C@@]2(C(=O)Nc4cc(Cl)ccc42)N(c2cc(Cl)ccc2F)C3=O)c(OC)n1"
quantitative_result = 4.17

[[record]]
structure_notation = "COc1nc(C2CC2)ncc1-c1nc2c(n1C(C)C)[C@@]1(C(=O)Nc3cc(Cl)ccc31)N(c1cc(Cl)ccc1C)C2=O"
quantitative_result = 5.08

[[record]]
structure_notation = "COc1cc(OC)c(-c2nc3c(n2C(C)C)[C@@]2(C(=O)Nc4cc(Cl)ccc42)N(c2cc(Cl)ccc2F)C3=O)cn1"
quantitative_result = 2.43

[[record]]
structure_notation = "CCOc1cc(OC)c(-c2nc3c(n2C(C)C)[C@@]2(C(=O)Nc4cc(Cl)ccc42)N(c2cc(Cl)ccc2C)C3=O)cn1"
quantitative_result = 3.98


Okay, now this molecule:
Any idea what its MRT inf is? The molecule is COc1cc(OC(C)C)ncc1-c1nc2c(n1C(C)C)[C@@]1(C(=O)Nc3cc(Cl)ccc31)N(c1cc(Cl)ccc1C)C2=O 4.94

----------
Some molecules, each annotated with its measured log10 of IC50.
System: human osteosarcoma cell line SJSA-1
assay_info: Inhibition of proliferation of human osteosarcoma cell line SJSA-1 (DAPI staining, In Cell Analyzer)
measurement_setup: Homo sapiens, SJSA-1, 72 h, read-out: IC50 (nM), inhibitory activity on proliferation of human osteosarcoma cell line SJSA-1, SJSA-1, incubated 72 h
Quick note: numbers are log10 of IC50, with nM as the unit.

Worked set:
[[record]]
structure_notation = "COc1cc(N(C)C)ccc1-c1nc2c(n1C(C)C)[C@]1(C(=O)Nc3cc(Cl)ccc31)N(c1cc(Cl)ccc1F)C2=O"
quantitative_result = 3.20

[[record]]
structure_notation = "COc1cc(OC)c(-c2nc3c(n2C(C)C)[C@@]2(C(=O)Nc4cc(Cl)ccc42)N(c2cc(Cl)ccc2C)C3=O)cc1C"
quantitative_result = 0.79

[[record]]
structure_notation = "COc1cnccc1-c1nc2c(n1C(C)C)[C@@]1(C(=O)Nc3cc(Cl)ccc31)N(c1cc(Cl)ccc1C)C2=O"
quantitative_result = 2.09

[[record]]
structure_notation = "COc1ncc(-c2nc3c(n2C(C)C)[C@]2(C(=O)Nc4cc(Cl)ccc42)N(c2cc(Cl)cnc2C)C3=O)c(OC)n1"
quantitative_result = 3.66

[[record]]
structure_notation = "COc1ccc(C(C)C)c(-c2nc3c(n2C(C)C)[C@@]2(C(=O)Nc4cc(Cl)ccc42)N(c2cc(Cl)ccc2C)C3=O)c1"
quantitative_result = 2.55

[[record]]
structure_notation = "COc1cc(OC)c(-c2nc3c(n2C(C)C)[C@]2(C(=O)Nc4cc(Cl)ccc42)N(c2cccc(Cl)c2)C3=O)cn1"
quantitative_result = 1.43

[[record]]
structure_notation = "CCOc1ncc(-c2nc3c(n2C(C)C)[C@@]2(C(=O)Nc4cc(Cl)ccc42)N(c2cc(Cl)cnc2C)C3=O)c(OC)n1"
quantitative_result = 1.91

[[record]]
structure_notation = "COc1ncc(-c2nc3c(n2C(C)C)[C@@]2(C(=O)Nc4cc(Cl)ccc42)N(c2cc(Cl)ccc2OC)C3=O)c(OC)n1"
quantitative_result = 2.30


Any idea what its log10 of IC50 is? The molecule is COc1ncc(-c2nc3c(n2C(C)C)[C@@]2(C(=O)Nc4cc(Cl)ccc42)N(c2cc(Cl)ccc2F)C3=O)c(OC)n1 1.08

What do you have for COc1cc(C(F)(F)F)ncc1-c1nc2c(n1C(C)C)[C@@]1(C(=O)Nc3cc(Cl)ccc31)N(c1cccc(Cl)c1)C2=O ? 2.14

What do you have for COc1cc(N)ccc1-c1nc2c(n1C(C)C)[C@]1(C(=O)Nc3cc(Cl)ccc31)N(c1cc(Cl)ccc1F)C2=O ? 3.59

What do you have for CCOc1ncc(-c2nc3c(n2C(C)C)[C@@]2(C(=O)Nc4cc(Cl)ccc42)N(c2cc(Cl)ccc2C)C3=O)c(OC)n1 ? 1.92

What do you have for COc1cc(N(C)C)ncc1-c1nc2c(n1C(C)C)[C@@]1(C(=O)Nc3cc(Cl)ccc31)N(c1cc(Cl)ccc1C)C2=O ? 1.11
